# Tested on: non-tumor-bearing immunocompetent FVB mice
# protocol: Biodistribution of lanthanide chloride salts LnCl3 (multiplexed ICP-MS)
# Type: in vivo
# condition.context: 1 h p.i.
measure.name: Organ ratios: Blood-to-bone

[Cl][Lu]([Cl])[Cl] [[^175Lu]LuCl3]; 0.38
[Cl][Tb]([Cl])[Cl] [[^159Tb]TbCl3]; 0.38
[Cl-].[Cl-].[Cl-].[Eu+3] [[^153Eu]EuCl3]; 0.40
[Cl][Gd]([Cl])[Cl] [[^157Gd]GdCl3]; 0.37

---

# protocol: Biodistribution of Ln-DOTATATE and Ln-DOTA-LM3 (multiplexed ICP-MS)
# condition.context: female, CD1 nude, mouse, brain, intravenous, 0.5 nmol, Tissue uptake: Brain, 24 h p.i., AR42J tumor-bearing mice
Where a SMILES comes first, the peptide text is derived from it. Bridges are numbered along the chain shown (N, C = ends). [ ]: non-standard residue; d: D form. The star is where a group is joined. DOTA = O=C(O)CN1CCN(CC(=O)O)CCN(CC(=O)*)CCN(CC(=O)O)CC1; dPhe(4-NHCONH2) = NC(=O)Nc1ccc(C[C@@H](N)C(=O)O)cc1; Phe(4-Cl) = N[C@@H](Cc1ccc(Cl)cc1)C(=O)O
measure.name: tissue uptake at 24 h

tissue uptake at 24 h for C[C@@H](O)[C@@H]1NC(=O)[C@H](CCCCN)NC(=O)[C@@H](Cc2ccc(NC(N)=O)cc2)NC(=O)[C@H](Cc2ccc(O)cc2)NC(=O)[C@H](NC(=O)[C@H](Cc2ccc(Cl)cc2)NC(=O)CN2CCN(CC(=O)O)CCN(CC(=O)O)CCN(CC(=O)O)CC2)CSSC[C@@H](C(=O)N[C@H](Cc2ccc(O)cc2)C(N)=O)NC1=O [[^175Lu]Lu-DOTA-LM3] ({DOTA}-[Phe(4-Cl)][dC]Y[dPhe(4-NHCONH2)]KTC[dY]-NH2; disulfide 2-7 (inferred); C-terminus assumed) is < 0.5 %ID/g

---

# Test system: non-tumor-bearing immunocompetent FVB mice
# protocol: Biodistribution of lanthanide chloride salts LnCl3 (multiplexed ICP-MS)
# Type: in vivo
# condition.context: 96 h p.i., non-tumor-bearing mice
measure.name: Tissue uptake: Heart (% ID/g)

Answered cases to consult:
[Cl][Tb]([Cl])[Cl] [[^159Tb]TbCl3]; 0.73
[Cl][Lu]([Cl])[Cl] [[^175Lu]LuCl3]; 0.89

(P) [Cl][Gd]([Cl])[Cl] [[^157Gd]GdCl3]
(Q) [Cl-].[Cl-].[Cl-].[Eu+3] [[^153Eu]EuCl3]
input: Which item exceeds the other in Tissue uptake: Heart, P or Q ? Choose, then provide that item's label.
output: P
(P: 1.2 % ID/g, Q: 0.83 % ID/g)

---

# System: non-tumor-bearing immunocompetent FVB mice
# protocol: Biodistribution of lanthanide chloride salts LnCl3 (multiplexed ICP-MS)
# Format: in vivo
# condition.context: 1 h p.i.
measure.name: Organ ratios: Liver-to-bone

Sample answers from the record:
[Cl][Tb]([Cl])[Cl] [[^159Tb]TbCl3]; 2.0
[Cl-].[Cl-].[Cl-].[Eu+3] [[^153Eu]EuCl3]; 3.0

(I) [Cl][Gd]([Cl])[Cl] [[^157Gd]GdCl3]
(II) [Cl][Lu]([Cl])[Cl] [[^175Lu]LuCl3]
input: So which one has the bigger Organ ratios: Liver-to-bone here, I or II ? To answer, give the label that identifies your chosen option.
output: I

Provenance of the data: paper PMC11839852
